// data source = patent US20250059172A1

Test system: human A549 cells
protocolText: Inhibition test of PGE2 production using human A549 cells
Type: cell-based
testParameters: IL-1β stimulated A549 cells, 24 h, PGE2 by HTRF, read-out: A549 cell inhibition of PGE2 production IC50
pIC50: −log10 of the molar value. Counter-ions that a name gives are not always drawn.
propertyMeasured: pIC50

[[record]]
compound = "O=C(Nc1cccc2c1cnn2-c1ccc(C(F)(F)F)cc1)c1cc(CNC(=O)C2(O)CC2)ccc1Cl [Example 27]"
quantitativeresult = 8.36

[[record]]
compound = "CC(C)Oc1cccc(-n2ncc3c(NC(=O)c4cc(CNC(=O)C(C)(C)C)ccc4Cl)cccc32)c1 [Example 68]"
quantitativeresult = 8.70

[[record]]
compound = "COc1cncc(-n2ncc3c(NC(=O)c4cc(CNC(=O)C(C)(C)C)ccc4Cl)cccc32)c1 [Example 61, hydrochloride]"
quantitativeresult = 8.54

[[record]]
compound = "CC(C)(C)C(=O)NCc1ccc(Cl)c(C(=O)Nc2cccc3c2cnn3-c2ccc(C3CC3)nc2)c1.Cl [Example 69, hydrochloride]"
quantitativeresult = 8.68

